Assay: Cytotoxicity against fibroblasts
reported.property: Activity

- COc1c(-c2cc(-c3ccccc3)n(-c3ccc(F)cc3)n2)ccc2occc12: Non-toxic
- COc1c(-c2cc(-c3ccccc3)on2)ccc2occc12: Non-toxic
- COc1c(-c2cc(-c3ccccc3)n(-c3ccc([N+](=O)[O-])cc3[N+](=O)[O-])n2)ccc2occc12: Non-toxic

###

The following compounds are shown together with reported Activity values.
Test system: IMR-32
Assay: Cytotoxicity against Homo sapiens (human) IMR32 cells after 16 hr by MTT assay
Assay type: functional
Phrase the answer as number then unit, nothing more needed.

The examples below pair each entry with its known result.
- COc1c(-c2cc(-c3ccccc3)on2)ccc2occc12: 58%
- COc1c(-c2cc(-c3ccccc3)n(-c3ccccc3F)n2)ccc2occc12: 71%
- COc1c(-c2cc(-c3ccccc3)n(-c3cccc(F)c3)n2)ccc2occc12: 86%

State the recorded Activity for this entry: `COc1c(C(=O)/C=C(\O)c2ccccc2)ccc2occc12` 38%
